Test: A CellTox Green Cytotoxicity Assay to monitor cytotoxicity in HEK293 cells - 8 hour (AID 1224884); note: nearly all actives have a fitted effect of over 35% in size
Conditions: CellTox Green fluorescence; series mostly up to 76.8 µM
Text: National Center for Advancing Translational Sciences [NCATS] NIH Chemical Genomics Center [NCGC] U.S. Environmental Protection Agency [EPA] National Institutes of Environmental Health Sciences [NIEHS] National Toxicology Program [NTP] Cell-based models are critical for drug discovery. […] Viable cells produce no appreciable increases in fluorescence. Therefore, the fluorescence signal produced by the binding interaction with dead cell DNA is proportional to cytotoxicity. […]
Inconclusive results are not listed. Activity calls are given as the source filed them. Calls come from the whole dose curve; as a rule, active = well fitted activation curve with a large enough effect in the repeat runs; inconclusive = weak or mixed curves; inactive = flat fitted curve, though single readings scatter.
Outcomes: active, inactive

Compound	Cat
O=C([O-])c1ccccn1.O=C([O-])c1ccccn1.O=C([O-])c1ccccn1.[Cr+3]	inactive
C[CH2][Hg][S]c1ccccc1C(=O)O	active
CC(Cl)C(=O)O (configuration not stated)	inactive
CCCCC(CC)COC(=O)c1c(Br)c(Br)c(Br)c(Br)c1C(=O)OCC(CC)CCCC (configuration not stated)	inactive
C[C@@H]1C[C@@H]([C@H](O)CC2CC(=O)NC(=O)C2)C(=O)[C@@H](C)C1	inactive
c1ccc2c(c1)sc1ccccc12	inactive
CCCN(CCC)c1c([N+](=O)[O-])cc(C(C)C)cc1[N+](=O)[O-]	inactive
O=C(N/N=C/c1ccc([N+](=O)[O-])o1)c1cc([N+](=O)[O-])cc([N+](=O)[O-])c1O	inactive
Cc1cnc(C2=NC(C)(C(C)C)C(=O)N2)c(C(=O)O)c1 (configuration not stated)	inactive
O=S(=O)(Cl)Cl	inactive
O=C(CCl)CCl	inactive
NC(=S)c1c(Cl)cccc1Cl	inactive

====

Test: Caspase-3/7 induction in HepG2 cells by small molecules, qHTS assay (AID 1346978); note: % is set by controls: 0 for no effect and ±100 for the full control effect; nearly all actives have a fitted effect of over 15% in size
Details: HepG2 caspase-3/7 activation, Caspase-Glo luminescence, 17 h; series mostly up to 92.4 µM
Inconclusive results are not listed. Activity calls are given as the source filed them. Calls come from the whole dose curve; as a rule, active = well fitted activation curve with a large enough effect in the repeat runs; inconclusive = weak or mixed curves; inactive = flat fitted curve, though single readings scatter.

Compound	caspase activation
CCCCCCCCCCCCN=C(N)N	-1.34% [at 3.27 µM] (inactive)
Oc1cccc(Cl)c1	inactive
CCCC[N+](CCCC)(CCCC)CCCC	inactive
C=CCc1ccc(OC(=O)Cc2ccccc2)c(OC)c1	inactive
COCc1cnc(C2=NC(C)(C(C)C)C(=O)N2)c(C(=O)O)c1 (configuration not stated)	inactive
O=C1NC(=O)C(=O)C(=O)N1	inactive
CN1C[C@H](C(=O)N[C@]2(C)O[C@@]3(O)[C@@H]4CCCN4C(=O)[C@H](Cc4ccccc4)N3C2=O)C=C2c3cccc4[nH]cc(c34)C[C@H]21	inactive

====

Test: A CellTox Green Cytotoxicity Assay to monitor cytotoxicity in HEK293 cells - 8 hour (AID 1224884); note: nearly all actives have a fitted effect of over 35% in size
Details: CellTox Green fluorescence; series mostly up to 76.8 µM
Inconclusive results are not listed. Calls of active or inactive are those of the source. The call rests on the fitted dose curve; in most records, active means well fitted activation curve with a large enough effect in the repeat runs; inconclusive means weak or mixed curves; inactive means flat fitted curve, though single readings scatter.
Recorded metric: outcome

Compound	Assay result
CCSCc1ccccc1OC(=O)NC	inactive
O=C(O)C(F)(F)C(F)(F)C(F)(F)C(F)(F)C(F)(F)C(F)(F)C(F)(F)C(F)(F)F	inactive
COc1cc(CC#N)cc(OC)c1OC	inactive
O=C(O)C(O)C(O)C(=O)O (configuration not stated)	inactive
CCCC[N+]1(C)[C@@H]2CC(OC(=O)[C@H](CO)c3ccccc3)C[C@H]1[C@@H]1O[C@@H]12 (some centres not stated)	inactive
c1ccc2c(c1)-c1cccc3cccc-2c13	inactive
C#C[C@]1(O)CC[C@H]2[C@@H]3CCC4=CC(=O)CCC4=C3C=C[C@@]21CC	inactive

====

Test: A CellTox Green Cytotoxicity Assay to monitor cytotoxicity in HepG2 cells - 40 hour (AID 1224879); note: % is set by controls: 0 for no effect and ±100 for the full control effect; nearly all actives have a fitted effect of over 40% in size
Conditions: CellTox Green fluorescence; series mostly up to 76.8 µM
Records with an inconclusive call do not appear. Activity calls are given as the source filed them. Calls follow the shape of the dose curve; as a rule, active = well fitted activation curve with a large enough effect in the repeat runs; inconclusive = weak or mixed curves; inactive = flat fitted curve, though single readings scatter.
Recorded metric: outcome

Molecule	Assay result
O=C(NCNC(=O)NC1C(=O)NC(=O)N1CO)NC1C(=O)NC(=O)N1CO (centres undefined)	inactive
OCCSSCCO	inactive
COC(=O)Cc1ccccc1	inactive
C#CC(O)(C=CCl)CC (centres undefined)	inactive
CCC1CCC(=O)O1 (centres undefined)	inactive
O=C(Cc1ccccc1)c1ccccc1	inactive
CC(=O)NNc1ccccc1	inactive
CCCC1CCCCN1 (centres undefined)	inactive
C=CCOCC1CO1 (centres undefined)	inactive

====

Assay: qHTS assay to identify small molecule agonists of the AP-1 signaling pathway - cell viability counter screen (AID 1159525); note: nearly all actives have a fitted effect of over 55% in size
Conditions: ME-180 (cervical carcinoma) AP-1-bla cells viability, ATP luminescence, 5 h; series mostly up to 76.8 µM
Inconclusive results are not listed. Calls of active or inactive are those of the source. Calls follow the shape of the full dose curve.

Compound	viability change, negative = cytotoxic
O=C1CC[C@@]2(O)[C@H]3Cc4ccc(O)c5c4[C@@]2(CCN3CC2CC2)[C@H]1O5	inactive
CNC(=O)Oc1cccc(N=CN(C)C)c1	inactive
Cc1cccc(C)c1NC1=NCCCS1	inactive
SCc1ccccc1	inactive
O=S(=O)(c1ccccc1)c1ccccc1	inactive
CC[N+]1(CCOC(=O)C(O)(c2ccccc2)c2ccccc2)CCCCC1	inactive
O=[N+]([O-])/C=C/c1ccccc1	inactive
Cc1ncc(C[n+]2csc(CCO)c2C)c(N)n1	inactive
CCCCCl	inactive
Cc1ccccc1	inactive
CCCCCCCCP(=O)(O)O	inactive
CN(C)C(=O)Nc1cccc(OC(=O)NC(C)(C)C)c1	inactive
O=C(O)C(O)C(O)C(=O)O (configuration not stated)	inactive
Nc1c(Br)cc(Br)c2c1C(=O)c1ccccc1C2=O	1.64% [at 15.8 µM] (inactive)
O=C(NC(=O)c1cc(F)c(F)cc1Cl)Nc1cc(F)ccc1N1CCC(C(=O)O)CC1	inactive
CCCCCCCCCCCCN(C)C	inactive
CON(C)C(=O)Nc1ccc(Cl)cc1	inactive
CCCCCCCCCCCCCCCl	inactive
NC(=S)c1c(Cl)cccc1Cl	inactive
CC(C)[C@@H](C(=O)O[C@@H](C#N)c1cccc(Oc2ccccc2)c1)c1ccc(Cl)cc1	inactive
COC(=O)Cc1ccccc1	inactive
CC(C)(C)OOC(C)(C)CCC(C)(C)OOC(C)(C)C	inactive
CCCBr	inactive
FC(Cl)(Cl)C(F)(Cl)Cl	inactive
CCCCCBr	inactive
O=CC=O	inactive
N#CC1(N=NC2(C#N)CCCCC2)CCCCC1	inactive
Nc1ccccc1C(=O)OCCc1ccccc1	inactive
CC(Oc1cccc(Cl)c1)C(=O)O (configuration not stated)	inactive
O=C(O)C(F)(F)C(F)(F)C(F)(F)C(F)(F)C(F)(F)F	inactive
C=C(Cl)Cl	inactive
C[C@@H]1C[C@@H]([C@H](O)CC2CC(=O)NC(=O)C2)C(=O)[C@@H](C)C1	inactive
CC(C)(c1ccccc1)c1cc(-n2nc3ccccc3n2)c(O)c(C(C)(C)c2ccccc2)c1	inactive
CC(Cc1ccccc1)NCc1ccccc1Cl (configuration not stated)	inactive
C=CCN1C[C@H](C)N([C@H](c2ccc(C(=O)N(CC)CC)cc2)c2cccc(OC)c2)C[C@H]1C	inactive
OCCSSCCO	inactive
ClCc1ccccc1Cl	inactive

====

Target: Cytochrome P450 1A2 (Homo sapiens) (UniProt P05177)
Sequence (P05177 whole entry, looked up): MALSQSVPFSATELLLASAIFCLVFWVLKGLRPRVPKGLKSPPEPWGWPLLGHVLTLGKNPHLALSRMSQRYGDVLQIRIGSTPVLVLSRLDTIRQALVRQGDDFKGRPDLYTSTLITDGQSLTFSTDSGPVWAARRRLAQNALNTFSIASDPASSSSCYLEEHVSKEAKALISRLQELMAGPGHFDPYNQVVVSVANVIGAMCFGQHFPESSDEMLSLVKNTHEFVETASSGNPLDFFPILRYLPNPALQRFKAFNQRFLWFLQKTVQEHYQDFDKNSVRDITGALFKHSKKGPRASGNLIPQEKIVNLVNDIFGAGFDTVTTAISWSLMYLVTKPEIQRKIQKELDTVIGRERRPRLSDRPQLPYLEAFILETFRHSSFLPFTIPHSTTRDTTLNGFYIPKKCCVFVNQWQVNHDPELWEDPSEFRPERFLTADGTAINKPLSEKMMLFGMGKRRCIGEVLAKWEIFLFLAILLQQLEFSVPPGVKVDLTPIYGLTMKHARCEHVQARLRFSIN
Assay: Cytochrome P450 Family 1 Subfamily A Member 2 (CYP1A2) small molecule antagonists: luciferase reporter qHTS assay (AID 1671199); note: nearly all actives have a fitted effect of over 50% in size; note: potency is the fitted concentration of half-maximal effect
Conditions: P450-Glo CYP1A2 enzyme, luciferin luminescence, 1 h; series mostly up to 115 µM
Records with an inconclusive call do not appear. The source made the active and inactive calls. Calls come from the whole dose curve; as a rule, active = well fitted inhibition curve with a large enough effect in the repeat runs; inconclusive = weak or mixed curves; inactive = no such curve, though single readings can be large or run the other way.
Recorded metric: Potency

Compound	Recorded metric	Assay result
COC1=CC(=O)O[C@@H](/C=C/c2ccc3c(c2)OCO3)C1	Potency	3.41 µM (active)
CC(Cl)C(=O)O (centres undefined)	Potency	inactive
CC(=O)OC(c1ccccc1)C(Cl)(Cl)Cl (centres undefined)	Potency	inactive
CON(C)C(=O)Nc1ccc(Cl)cc1	Potency	7.1 µM (active)
CCN(C(C)=O)c1cccc(-c2ccnc3c(C#N)cnn23)c1	Potency	inactive
CCOC(=O)NC(O)C(Cl)(Cl)Cl (centres undefined)	Potency	inactive
CN(C1CCCCC1)C1CCCCC1	Potency	inactive
CC(C)OC(=O)Cc1ccccc1	Potency	35.9 µM (active)
O=C1NC(=O)C(=O)C(=O)N1	Potency	inactive
COP(=O)(OC)OC(Br)C(Cl)(Cl)Br (centres undefined)	Potency	35.6 µM (active)
CC(C)c1ccc(NC(=O)N(C)C)cc1	Potency	15.9 µM (active)
O=[N+]([O-])O[C@H]1CO[C@H]2[C@@H]1OC[C@H]2O[N+](=O)[O-]	Potency	inactive
Cc1ccccc1	Potency	inactive
CC(C)(C)N(NC(=O)c1ccc(Cl)cc1)C(=O)c1ccccc1	Potency	39.7 µM (active)

====

Assay: A CellTox Green Cytotoxicity Assay to monitor cytotoxicity in HepG2 cells - 32 hour (AID 1224883); note: nearly all actives have a fitted effect of over 50% in size
Conditions: CellTox Green fluorescence; series mostly up to 76.8 µM
Results filed as inconclusive are left out. Activity calls are given as the source filed them. Calls follow the shape of the dose curve; as a rule, active = well fitted activation curve with a large enough effect in the repeat runs; inconclusive = weak or mixed curves; inactive = flat fitted curve, though single readings scatter.
Labels: active, inactive

Compound	Cat
Nc1cc(Cl)cc(C(=O)O)c1Cl	inactive
C[C@]12C=CC3=C4CCC(=O)C=C4CC[C@H]3[C@@H]1CC[C@@H]2O	inactive
N#CC(C#N)=C(C#N)C#N	inactive
O=C(O)c1ccc(=O)[nH]c1	inactive
CN(C)c1ccc(N=O)cc1	active
CN[C@@H](C)[C@H](O)c1ccccc1	inactive
COC1=CC(=O)O[C@@H](/C=C/c2ccc3c(c2)OCO3)C1	inactive
CCCBr	inactive
Clc1ccccc1	inactive
COC(=O)Cc1ccccc1	inactive
OCCSSCCO	inactive
CC(C)(C)OOC(C)(C)CCC(C)(C)OOC(C)(C)C	inactive
C[C@@H]1C[C@@H]([C@H](O)CC2CC(=O)NC(=O)C2)C(=O)[C@@H](C)C1	inactive
C=CC(C)(CCC=C(C)C)OC(=O)c1ccccc1N (configuration not stated)	inactive
C[C@H]1[C@@H]2Cc3ccc(O)cc3[C@@]1(C)CCN2C	inactive
C#CC(O)(C=CCl)CC (configuration not stated)	inactive
COCc1cnc(C2=NC(C)(C(C)C)C(=O)N2)c(C(=O)O)c1 (configuration not stated)	inactive
O=C(N[C@H]1CN2CCC1CC2)c1ccc2c(c1)OCCO2	inactive
CCOP(=S)(OCC)Oc1ccc(S(C)=O)cc1 (configuration not stated)	inactive
CN(C1CCCCC1)C1CCCCC1	inactive
CC(=O)NNc1ccccc1	inactive
CC[N+]1(C)CCCC(OC(=O)C(O)(c2ccccc2)c2ccccc2)C1 (configuration not stated)	inactive
Clc1ccc2ccccc2c1	inactive
CN1CC[C@]23c4c5ccc(O)c4O[C@H]2[C@@H](O)C=C[C@H]3[C@H]1C5	inactive
CCCCCBr	inactive
CC(C)c1ccc(NC(=O)N(C)C)cc1	inactive
CN1C[C@H](C(=O)N[C@]2(C)O[C@@]3(O)[C@@H]4CCCN4C(=O)[C@H](Cc4ccccc4)N3C2=O)C=C2c3cccc4[nH]cc(c34)C[C@H]21	inactive
